Collected IC50 values appear next to each entry.
# assayed.target: vitronectin receptor αvβ3 (Homo sapiens, UniProt P05106+P06756)
# Sequence (P06756 31-889 limits assumed): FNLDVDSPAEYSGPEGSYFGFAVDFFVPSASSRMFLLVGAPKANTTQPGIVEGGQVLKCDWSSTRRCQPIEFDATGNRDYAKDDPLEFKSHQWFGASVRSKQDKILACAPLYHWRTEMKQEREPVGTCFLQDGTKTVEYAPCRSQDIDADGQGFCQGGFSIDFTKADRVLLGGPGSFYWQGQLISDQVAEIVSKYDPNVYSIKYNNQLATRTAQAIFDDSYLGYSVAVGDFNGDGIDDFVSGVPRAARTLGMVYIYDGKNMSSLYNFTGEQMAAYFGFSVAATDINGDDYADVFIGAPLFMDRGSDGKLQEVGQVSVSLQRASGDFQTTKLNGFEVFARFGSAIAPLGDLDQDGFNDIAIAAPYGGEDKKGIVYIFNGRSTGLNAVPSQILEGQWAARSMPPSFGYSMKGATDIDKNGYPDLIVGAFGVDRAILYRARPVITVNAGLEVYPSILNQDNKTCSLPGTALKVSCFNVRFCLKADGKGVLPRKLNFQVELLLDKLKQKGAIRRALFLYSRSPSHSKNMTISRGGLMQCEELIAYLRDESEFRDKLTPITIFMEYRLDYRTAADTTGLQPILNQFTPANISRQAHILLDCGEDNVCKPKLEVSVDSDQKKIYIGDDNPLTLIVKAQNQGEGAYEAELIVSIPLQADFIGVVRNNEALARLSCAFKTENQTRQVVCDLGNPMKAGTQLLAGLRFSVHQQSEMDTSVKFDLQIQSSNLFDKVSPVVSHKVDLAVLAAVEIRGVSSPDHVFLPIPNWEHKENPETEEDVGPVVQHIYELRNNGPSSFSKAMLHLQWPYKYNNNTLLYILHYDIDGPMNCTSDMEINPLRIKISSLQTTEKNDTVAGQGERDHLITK
# Sequence (P06756 891-1048 limits assumed): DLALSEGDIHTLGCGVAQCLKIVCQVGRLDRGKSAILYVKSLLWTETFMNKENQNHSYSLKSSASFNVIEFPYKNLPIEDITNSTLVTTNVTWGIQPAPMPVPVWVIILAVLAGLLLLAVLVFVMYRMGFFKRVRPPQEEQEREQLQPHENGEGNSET
# Sequence (P05106 27-788): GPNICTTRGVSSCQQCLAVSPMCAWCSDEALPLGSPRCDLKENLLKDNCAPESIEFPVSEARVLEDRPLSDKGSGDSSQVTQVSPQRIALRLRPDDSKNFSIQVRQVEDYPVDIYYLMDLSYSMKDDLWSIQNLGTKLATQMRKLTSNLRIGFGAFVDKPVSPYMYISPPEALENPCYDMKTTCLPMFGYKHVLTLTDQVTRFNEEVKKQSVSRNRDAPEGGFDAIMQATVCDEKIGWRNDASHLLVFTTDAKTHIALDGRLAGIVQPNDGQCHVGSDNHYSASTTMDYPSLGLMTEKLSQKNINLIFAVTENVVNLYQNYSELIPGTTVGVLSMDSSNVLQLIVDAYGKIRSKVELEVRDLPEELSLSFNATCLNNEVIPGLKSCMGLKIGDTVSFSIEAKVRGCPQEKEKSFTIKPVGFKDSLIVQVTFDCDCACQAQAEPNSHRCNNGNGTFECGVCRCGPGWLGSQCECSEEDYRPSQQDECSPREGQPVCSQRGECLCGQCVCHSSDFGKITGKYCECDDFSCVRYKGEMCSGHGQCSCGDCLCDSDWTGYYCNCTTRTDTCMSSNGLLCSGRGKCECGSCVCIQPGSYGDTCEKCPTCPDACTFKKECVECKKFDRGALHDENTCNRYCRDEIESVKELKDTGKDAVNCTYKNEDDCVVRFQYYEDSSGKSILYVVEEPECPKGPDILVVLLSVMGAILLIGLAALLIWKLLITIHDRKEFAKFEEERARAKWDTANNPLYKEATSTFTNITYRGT
# experiment.notes: Inhibition of binding of 293 cells to human vitronectin (Vn/293 cell test)
# run.parameters: 293 cells cotransfected with αv and β3 subunits; plate coated with human vitronectin; 90 min at 37° C.
State just the number; it will be interpreted in nM.

Some solved entries appear below for comparison.
O=C(CCCOc1ccc(C[C@H](NC(=O)OCc2ccccc2)C(=O)O)cc1)NC1=NCCN1 | 32
O=C(CCCOc1ccc(C[C@H](NC(=O)OCc2ccccc2)C(=O)O)cc1)NC1=NCCCN1 | 28
O=C(CCc1ccc(C(=O)NC[C@H](NC(=O)OCc2ccccc2)C(=O)O)cc1)NC1=NCCCN1 | 17

-- ask Read off the recorded IC50 for O=C(COc1ccc(C(=O)NC[C@H](NC(=O)OCc2ccccc2)C(=O)O)cc1)NC1=NCCCN1
-- reply 1350
